test.system: Sodium channel protein type 5 subunit alpha (Homo sapiens); note: assay procedure not described here
Sequence (Q14524 whole entry): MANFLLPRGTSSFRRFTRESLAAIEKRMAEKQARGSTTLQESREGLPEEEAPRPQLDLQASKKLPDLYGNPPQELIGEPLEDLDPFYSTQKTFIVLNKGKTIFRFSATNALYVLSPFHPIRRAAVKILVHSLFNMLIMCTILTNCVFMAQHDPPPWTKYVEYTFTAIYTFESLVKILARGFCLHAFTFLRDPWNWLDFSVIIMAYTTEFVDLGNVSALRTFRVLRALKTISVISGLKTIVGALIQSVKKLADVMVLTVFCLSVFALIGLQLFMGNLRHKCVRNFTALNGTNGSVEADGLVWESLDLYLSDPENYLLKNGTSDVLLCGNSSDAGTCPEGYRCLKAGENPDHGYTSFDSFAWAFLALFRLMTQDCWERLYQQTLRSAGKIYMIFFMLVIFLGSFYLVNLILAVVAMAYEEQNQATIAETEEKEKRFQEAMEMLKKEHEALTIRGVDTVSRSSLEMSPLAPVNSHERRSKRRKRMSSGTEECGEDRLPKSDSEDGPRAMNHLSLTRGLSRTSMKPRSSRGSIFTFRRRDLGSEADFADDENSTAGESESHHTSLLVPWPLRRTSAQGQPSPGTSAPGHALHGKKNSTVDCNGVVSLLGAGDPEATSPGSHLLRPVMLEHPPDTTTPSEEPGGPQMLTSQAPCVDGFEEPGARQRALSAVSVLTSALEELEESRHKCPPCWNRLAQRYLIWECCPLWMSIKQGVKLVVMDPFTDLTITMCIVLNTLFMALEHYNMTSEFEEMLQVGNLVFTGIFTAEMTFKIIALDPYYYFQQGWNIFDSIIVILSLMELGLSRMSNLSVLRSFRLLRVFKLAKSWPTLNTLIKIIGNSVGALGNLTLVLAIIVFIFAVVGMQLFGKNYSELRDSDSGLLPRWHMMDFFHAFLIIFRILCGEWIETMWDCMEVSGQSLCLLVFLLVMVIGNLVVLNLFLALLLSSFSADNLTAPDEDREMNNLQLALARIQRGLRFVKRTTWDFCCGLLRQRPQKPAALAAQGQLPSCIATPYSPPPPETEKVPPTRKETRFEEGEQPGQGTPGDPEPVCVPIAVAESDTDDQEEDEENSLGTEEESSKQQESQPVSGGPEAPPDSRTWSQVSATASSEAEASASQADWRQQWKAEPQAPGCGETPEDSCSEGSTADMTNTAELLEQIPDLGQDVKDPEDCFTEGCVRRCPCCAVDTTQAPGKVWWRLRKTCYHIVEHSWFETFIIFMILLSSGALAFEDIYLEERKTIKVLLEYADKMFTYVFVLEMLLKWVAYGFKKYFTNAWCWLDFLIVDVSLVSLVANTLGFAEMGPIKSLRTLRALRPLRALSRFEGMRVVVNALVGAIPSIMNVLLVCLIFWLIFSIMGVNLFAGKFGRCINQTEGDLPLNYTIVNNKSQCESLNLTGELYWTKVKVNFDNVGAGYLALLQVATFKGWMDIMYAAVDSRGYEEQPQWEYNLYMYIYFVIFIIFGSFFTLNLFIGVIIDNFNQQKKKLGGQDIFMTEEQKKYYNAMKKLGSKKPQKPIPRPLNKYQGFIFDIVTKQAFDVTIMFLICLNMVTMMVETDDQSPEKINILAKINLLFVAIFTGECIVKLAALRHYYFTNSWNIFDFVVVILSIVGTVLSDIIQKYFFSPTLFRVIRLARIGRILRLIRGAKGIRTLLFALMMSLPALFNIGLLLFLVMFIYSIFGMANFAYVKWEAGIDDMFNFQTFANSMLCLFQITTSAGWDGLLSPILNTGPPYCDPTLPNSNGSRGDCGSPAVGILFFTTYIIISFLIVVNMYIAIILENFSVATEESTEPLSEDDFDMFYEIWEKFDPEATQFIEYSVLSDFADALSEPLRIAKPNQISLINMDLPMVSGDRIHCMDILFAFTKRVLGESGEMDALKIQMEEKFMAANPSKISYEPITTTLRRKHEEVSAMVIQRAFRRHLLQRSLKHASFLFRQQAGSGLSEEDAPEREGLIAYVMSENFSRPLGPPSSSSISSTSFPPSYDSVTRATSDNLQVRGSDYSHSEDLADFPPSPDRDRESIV
Format: functional, cell-based
experimental.readout: AC50

Example entries begin here.
CCCCCCOc1nsnc1C1=CCCN(C)C1 | 19 µM
CC[C@H]1OC(=O)[C@H](C)[C@@H](O[C@H]2C[C@@](C)(OC)[C@@H](O)[C@H](C)O2)[C@H](C)[C@@H](O[C@@H]2O[C@H](C)C[C@H](N(C)C)[C@H]2O)[C@](C)(O)C[C@@H](C)CN(C)[C@H](C)[C@@H](O)[C@]1(C)O | > 30 µM
COC(=O)C1=C(C)NC(C)=C(C(=O)OC2CCCN(Cc3ccccc3)C2)C1c1cccc([N+](=O)[O-])c1 (centres undefined) | > 50 µM
CC(CC(c1ccccc1)c1ccccc1)NC(C)(C)C (centres undefined) | 8.65 µM
C/C(O)=C(\C#N)C(=O)Nc1ccc(C(F)(F)F)cc1 [TERIFLUNOMIDE] | > 50 µM

Look at this compound and give its reported AC50. Cc1c(OCC(F)(F)F)ccnc1C[S+]([O-])c1nc2ccccc2[nH]1 (centres undefined)
> 30 µM

Field request: AC50 | item: CC(=O)O[C@H]1CC[C@@]2(C)C(=CC[C@@H]3[C@@H]2CC[C@]2(C)C(c4cccnc4)=CC[C@@H]32)C1 [ABIRATERONE ACETATE]
> 30 µM

What does the data say about its AC50? Entry: Clc1ccc(CCCOCCCN2CCCCC2)cc1
32 µM

Report AC50 for COc1ccc(CC(C)(C)NC[C@H](O)c2cc(O)cc3c2OCC(=O)N3)cc1 please.
> 50 µM
